molecular target: HLA A6802 (human); assay: 125I-probe competition, purified HLA
Catalogue of IC50 values
OBSERVATION_TYPE: IC50 (nM)

[[record]]
binder = "YTNWKFIYL (modifications not checked) [HPV31.E2.131]"
measured_number = 146

[[record]]
binder = "FLLCFCVLL (modifications not checked) [HPV31.E5.15]"
measured_number = 237

[[record]]
binder = "YVVWDSIYYI (modifications not checked) [HPV45.E2.137]"
measured_number = 30

[[record]]
binder = "GTLGIVCPV (modifications not checked) [HPV16.E7.85.V9]"
measured_number = 32

[[record]]
binder = "TVYVFCFLL (modifications not checked) [HPV18.E5.51]"
measured_number = 41

[[record]]
binder = "TLYAHIQCL (modifications not checked) [HPV45.E1.252]"
measured_number = 1610

